Target or system: hCA VII (Homo sapiens, UniProt P43166)
Construct: gene CA7; recombinant, obtained in-house; cytosolic alpha-CA
Sequence (P43166 whole entry): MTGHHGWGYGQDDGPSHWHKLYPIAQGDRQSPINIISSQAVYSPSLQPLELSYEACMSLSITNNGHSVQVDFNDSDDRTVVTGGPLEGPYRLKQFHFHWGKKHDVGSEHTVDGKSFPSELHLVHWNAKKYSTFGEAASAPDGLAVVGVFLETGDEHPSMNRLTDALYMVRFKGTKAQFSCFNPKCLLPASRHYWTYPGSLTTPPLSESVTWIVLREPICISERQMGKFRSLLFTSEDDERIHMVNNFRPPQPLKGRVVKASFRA
Assay protocol: stopped-flow CO2 hydrase assay
Format: biochemical
Test context: read-out: KI (nM) ^a / hCA VII (α-CA)
Each item that follows carries a reported log10 Ki.
Measurement label: log10 Ki (log10 of the value in nM)

| Molecule | Data value |
| --- | --- |
| CCC(=O)NC(=S)Nc1ccc(S(N)(=O)=O)cc1 [3b] | 0.45 |
| NS(=O)(=O)c1ccc(NC(=S)NC(=O)/C=C/c2ccccc2)cc1 [3k] | 0.49 |
| NS(=O)(=O)c1ccc(NC(=S)NC(=O)Cc2cccc3ccccc23)cc1 [3i] | 0.41 |
| CC(C)CC(=O)NC(=S)Nc1ccc(S(N)(=O)=O)cc1 [3f] | 0.32 |
| NS(=O)(=O)c1ccc(NC(=S)NC(=O)C2CC2)cc1 [3d] | 0.28 |
| CC(=O)NC(=S)Nc1ccc(S(N)(=O)=O)cc1 [3a] | 1.13 |
| CC(C)C(=O)NC(=S)Nc1ccc(S(N)(=O)=O)cc1 [3e] | 0.04 |
| NS(=O)(=O)c1ccc(NC(=S)NC(=O)c2ccc([N+](=O)[O-])cc2)cc1 [3l] | 0.40 |
| CCCCCC(=O)NC(=S)Nc1ccc(S(N)(=O)=O)cc1 [3g] | 0.51 |
| NS(=O)(=O)c1ccc(NC(=S)NC(=O)C2CCCCC2)cc1 [3h] | 0.34 |
| C/C=C/C(=O)NC(=S)Nc1ccc(S(N)(=O)=O)cc1 [3j] | 1.01 |
| CCCC(=O)NC(=S)Nc1ccc(S(N)(=O)=O)cc1 [3c] | 0.48 |

Provenance of the data: paper PMC10222120
